# Protocol Details: MTT assay, cytotoxic activity on normal hepatocytes
# Assay type: cell-based, mouse
# Experimental Parameters: Aml-12 cells (normal hepatocytes); normal mouse hepatocytes Aml-12 cells, 72 h
Recorded Metric: IC50 at 72 h (µM)
A number alone suffices; assume µM.

Short answer for CC(=O)O[C@H]1C(=O)[C@@]2(C)[C@H]([C@H](OC(=O)c3ccccc3)[C@]3(O)C[C@H](OC(=O)[C@H](O)[C@@H](NC(=O)c4ccccc4)c4ccccc4)C(C)=C1C3(C)C)[C@]1(OC(C)=O)CO[C@@H]1C[C@@H]2O [Paclitaxel, reference compound] : IC50 at 72 h was 2.51

Short answer for COc1cc(C(c2cc(C(=O)C=Cc3ccc(O)cc3)c(O)c(CC=C(C)C)c2O)N2CCOCC2)cc(OC)c1OC (stereo not drawn) : IC50 at 72 h was 10.1

Short answer for CC(C)=CCc1c(O)ccc(C(=O)/C=C/c2ccc(O)cc2)c1O : IC50 at 72 h was 17.7
